Data credit: patent US9540362B2

# tgt: UniProtKB P21453
# Sequence (P21453 whole entry): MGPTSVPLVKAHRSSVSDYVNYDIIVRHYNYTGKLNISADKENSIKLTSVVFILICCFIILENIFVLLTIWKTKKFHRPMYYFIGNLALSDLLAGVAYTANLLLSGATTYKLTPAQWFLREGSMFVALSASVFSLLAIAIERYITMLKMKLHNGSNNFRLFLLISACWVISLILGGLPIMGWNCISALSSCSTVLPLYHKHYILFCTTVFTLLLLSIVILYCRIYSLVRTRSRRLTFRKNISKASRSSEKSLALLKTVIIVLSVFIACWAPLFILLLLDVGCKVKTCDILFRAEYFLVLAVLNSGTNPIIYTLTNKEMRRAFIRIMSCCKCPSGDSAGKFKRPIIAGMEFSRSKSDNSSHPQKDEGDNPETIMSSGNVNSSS
# test.protocol: Ca2+ inducing ability using CHO cells overexpressing human S1P1 receptor (Calcium 5 assay kit)
# assay.setup: CHO cells overexpressing human S1P1, calcium RFU; S1P 1 μM = 100%
Where a name gives a salt, the structure may show the parent alone.
measured.attribute: EC50 (nM)

Here is how some compounds turned out for EC50.
INSERT INTO results (compound, tgt, assay_value) VALUES
  ('Cc1c(-c2noc(-c3ccc4c(c3)c(Cl)cn4C(C)C)n2)ccc2c1CCN(CC(=O)O)C2 [Example 58, hydrochloride]', 'UniProtKB P21453', 20),
  ('CC(C)n1nc(Cl)c2cc(-c3nc(-c4cccc5c4CCN(S(N)(=O)=O)C5)no3)ccc21 [Example 108]', 'UniProtKB P21453', 20),
  ('CC(C)n1nc(Cl)c2cc(COc3ccc4c(c3)CCC(CN3CCC(F)(C(=O)O)CC3)=C4Cl)ccc21 [Example 154]', 'UniProtKB P21453', 17);

(A) Cc1cc(CCC(=O)O)ccc1-c1noc(-c2ccc3c(ccn3C(C)C)c2)n1 [Example 1]
(B) CC1=C(CN2CCCC(C(=O)O)CC2)CCc2cc(OCc3ccc4c(c3)c(Cl)nn4C(C)C)ccc21 (stereo not drawn) [Example 149]
Query block: When the recorded EC50 values are compared, which is smaller: that of A or that of B ? Write the label of whichever entry you select.
Result block: A
(A: 5 nM, B: 19 nM)

(1) Cc1c(-c2noc(-c3ccc4c(c3)c(Cl)nn4C(C)C)n2)ccc2c1CCN(CCC(=O)O)C2 [Example 94, trifluoroacetate]
(2) Cc1c(-c2noc(-c3ccc4c(cnn4C(C)C)c3)n2)ccc2c1CCN(CC(=O)O)C2 [Example 85, trifluoroacetate]
(3) CC(C)n1ccc2cc(-c3nc(-c4cccc5c4CCCC5NS(N)(=O)=O)no3)ccc21 (stereo not drawn) [Example 38]
Query block: Please list these in order of increasing EC50. Thank you! Write the labels in rank order as requested.
Result block: 1, 2, 3
(1: 6 nM, 2: 10 nM, 3: 50 nM)

(a) CC(C)n1nc(Cl)c2cc(COc3ccc4c(c3)CCC(CN3CC[C@@H](C(=O)O)C3)=C4Cl)ccc21 [Example 151]
(b) Cc1cc(CN2CC(C(=O)O)C2)ccc1-c1noc(-c2ccc3c(c2)c(C#N)cn3C(C)C)n1 [Example 4]
Query block: When the recorded EC50 values are compared, which is smaller: that of a or that of b ? Write the label of whichever entry you select.
Result block: a
(a: 11 nM, b: 23 nM)

(1) Cc1cc(CCC(=O)O)ccc1-c1noc(-c2ccc3c(c2)c(Cl)cn3C(C)C)n1 [Example 52]
(2) CCC(C)n1nc(Cl)c2cc(COc3ccc4c(c3)CCC(CN3CCC(C(=O)O)CC3)=C4Cl)cnc21 (stereo not drawn) [Example 160]
(3) Cc1c(CN2CC(C(=O)O)C2)cccc1-c1noc(-c2ccc3c(ccn3C(C)C)c2)n1 [Example 26]
Query block: Please list these in order of increasing EC50. Thank you! Write the labels in rank order as requested.
Result block: 3, 1, 2
(3: 2 nM, 1: 10 nM, 2: 19 nM)
